- Tested on: M19-MEL melanoma
- TEST DETAILS: NCI tumour cell line growth inhibition, 48 h
Entries annotated with measured TGI

[
  {
    "COMPOUND": "O=NN(CCCl)C(=O)NCc1ccc[n+]([O-])c1",
    "QUANTITY NAME": "TGI",
    "VALUE": "> 100 µM"
  }
]

Q) Any idea what TGI was measured for CC12CC(=O)OC(Cc3ccccc31)O2 (stereo not drawn) ?
A) > 100 µM

Q) If you can, please state the reported TGI value of "CC(C)(C)C(=O)Nc1ccccc1Br" .
A) > 100 µM

Q) Find the recorded TGI belonging to "Cc1c2[nH]c3ccc(Br)cc3c2c(C)c2[nH]ccc(=O)c12" and report it.
A) 29.6 µM

Data provenance: PubChem BioAssay (NCI)
